# ASSAY_PROTOCOL: Approximate solubility at 25° C. and 50° C. (visual)
# Assay type: physicochemical
# STUDY_CONDITIONS: toluene, 50 °C, organic solvent or mixture, thermodynamic from solid, Toluene, 50° C.; read-out: Solubility
METRIC_NAME: solubility

Tell me the measured solubility of CCN(C)S(=O)(=O)Nc1ccc(F)c(Oc2ccc3ncn([C@H]4COC5(CCN(C(=O)CC6(O)CCN(c7cc8c(cc7F)c(N7CCC(=O)NC7=O)nn8C)CC6)CC5)C4)c(=O)c3c2)c1C#N [Compound 1 Form A] , please.
< 10000 µg/mL

---

# ASSAY_PROTOCOL: Approximate solubility at 25° C. and 50° C. (visual)
# Type: physicochemical
# STUDY_CONDITIONS: isopropyl acetate, 50 °C, organic solvent or mixture, thermodynamic from solid, Isopropyl acetate, 50° C.; read-out: Solubility
METRIC_NAME: solubility

Tell me the measured solubility of CCN(C)S(=O)(=O)Nc1ccc(F)c(Oc2ccc3ncn([C@H]4COC5(CCN(C(=O)CC6(O)CCN(c7cc8c(cc7F)c(N7CCC(=O)NC7=O)nn8C)CC6)CC5)C4)c(=O)c3c2)c1C#N [Compound 1 Form A] , please.
< 10000 µg/mL

---

# ASSAY_PROTOCOL: Solubility data for Compound 1 drug substance
# Format: physicochemical
# STUDY_CONDITIONS: aqueous buffer; pH 9.0 NaOH solution, pH 8.55
METRIC_NAME: solubility (mg/mL)
Answers are plain numbers, in mg/mL.

Tell me the measured solubility of "CCN(C)S(=O)(=O)Nc1ccc(F)c(Oc2ccc3ncn([C@H]4COC5(CCN(C(=O)CC6(O)CCN(c7cc8c(cc7F)c(N7CCC(=O)NC7=O)nn8C)CC6)CC5)C4)c(=O)c3c2)c1C#N" , please.
21.6

---

# ASSAY_PROTOCOL: Approximate solubility at 25° C. and 50° C. (visual)
# Type: physicochemical
# STUDY_CONDITIONS: isopropanol, 25 °C, organic solvent or mixture, thermodynamic from solid, Isopropanol, 25° C.; read-out: Solubility
METRIC_NAME: solubility

Tell me the measured solubility of CCN(C)S(=O)(=O)Nc1ccc(F)c(Oc2ccc3ncn([C@H]4COC5(CCN(C(=O)CC6(O)CCN(c7cc8c(cc7F)c(N7CCC(=O)NC7=O)nn8C)CC6)CC5)C4)c(=O)c3c2)c1C#N [Compound 1 Form A] , please.
< 5000 µg/mL

---

# ASSAY_PROTOCOL: Approximate solubility at 25° C. and 50° C. (visual)
# Format: physicochemical
# STUDY_CONDITIONS: heptane, 25 °C, organic solvent or mixture, thermodynamic from solid, Heptane, 25° C.; read-out: Solubility
METRIC_NAME: solubility

Tell me the measured solubility of CCN(C)S(=O)(=O)Nc1ccc(F)c(Oc2ccc3ncn([C@H]4COC5(CCN(C(=O)CC6(O)CCN(c7cc8c(cc7F)c(N7CCC(=O)NC7=O)nn8C)CC6)CC5)C4)c(=O)c3c2)c1C#N [Compound 1 Form A] , please.
< 5000 µg/mL

---

# ASSAY_PROTOCOL: Approximate solubility at 25° C. and 50° C. (visual)
# Type: physicochemical
# STUDY_CONDITIONS: MTBE, 25 °C, organic solvent or mixture, thermodynamic from solid, MTBE, 25° C.; read-out: Solubility
METRIC_NAME: solubility

Tell me the measured solubility of CCN(C)S(=O)(=O)Nc1ccc(F)c(Oc2ccc3ncn([C@H]4COC5(CCN(C(=O)CC6(O)CCN(c7cc8c(cc7F)c(N7CCC(=O)NC7=O)nn8C)CC6)CC5)C4)c(=O)c3c2)c1C#N [Compound 1 Form A] , please.
< 5000 µg/mL
